Hey, just so you know, these numbers are from patent US20240383845A1.

assay: Dissolubility or compatibility (maximum dissolved concentration, HPLC); type: physicochemical; details: 25° C., ethyl acetate
ATTRIBUTE MEASURED: Dissolubility, Ethyl acetate

Which measured Dissolubility, Ethyl acetate value corresponds to Sc1cccc2c(S)cccc12 ?
7.05 % by mass
